- System Name: 5-hydroxytryptamine receptor 4 (Homo sapiens)
- Assay Comment: Partial agonist activity at Rluc-tagged human 5-HT4 receptor expressed in human SH-5YSY cells co-expressing RGFP-fused to Gbeta1 assessed as inhibition of serotonin-induced coupling by BRET assay
- Format: functional, cell-based
Active and inactive are the calls of the source. The calls are words filed in the database; no cut-off is given here.
Quantity Measured: Activity

Reference set, count: 8
Give Activity for the following molecule: COc1cc(N)c(Cl)cc1C(=O)OCCN1CCC(NC(=O)NCCOCCOCCOCCOCCOCCOCCOCCOCCN=[N+]=[N-])CC1
Active

Return the recorded Activity value; entry: COc1cc(N)c(Cl)cc1C(=O)OCCN1CCC(NC(=O)NCCOCCOCCNC(=O)NCC(=O)OCc2ccccc2)CC1
Active

Please give the documented Activity of COc1cc(N)c(Cl)cc1C(=O)OCCN1CCC(NC(=O)NCCOCCOCCNC(=O)NCC(=O)O)CC1
Active

Specify measured Activity for COc1cc(N)c(Cl)cc1C(=O)OCCN1CCC(NC(=O)NCCOCCOCCOCCOCCOCCOCCOCCOCCn2cc(CNC(=O)NCCCN(CCCCN(CCCNC(=O)NCc3cn(CCOCCOCCOCCOCCOCCOCCOCCOCCNC(=O)NC4CCN(CCOC(=O)c5cc(Cl)c(N)cc5OC)CC4)nn3)CCCNC(=O)NCc3cn(CCOCCOCCOCCOCCOCCOCCOCCOCCNC(=O)NC4CCN(CCOC(=O)c5cc(Cl)c(N)cc5OC)CC4)nn3)CCCNC(=O)NCc3cn(CCOCCOCCOCCOCCOCCOCCOCCOCCNC(=O)NC4CCN(CCOC(=O)c5cc(Cl)c(N)cc5OC)CC4)nn3)nn2)CC1 .
Active

Tell us which Activity value is on record for COc1cc(N)c(Cl)cc1C(=O)OCCCN1CCCCC1
Active

Name the recorded Activity of the item COc1cc(N)c(Cl)cc1C(=O)OCCN1CCC(NC(=O)OC(C)(C)C)CC1 in your answer.
Active

Determine from records and report Activity for CCCCNC(=O)NC1CCN(CCOC(=O)c2cc(Cl)c(N)cc2OC)CC1
Active

Report measured Activity; entry is COc1cc(N)c(Cl)cc1C(=O)OCCN1CCC(NC(=O)NCCOCCOCCOCCOCCOCCOCCOCCOCCn2cc(CNC(=O)NCCCN(C)CCCNC(=O)NCc3cn(CCOCCOCCOCCOCCOCCOCCOCCOCCNC(=O)NC4CCN(CCOC(=O)c5cc(Cl)c(N)cc5OC)CC4)nn3)nn2)CC1
Active

Next:
Report Activity, nothing else, for this molecule: COc1cc(N)c(Cl)cc1C(=O)OCCN1CCC(NC(=O)NCCOCCOCCNC(=O)NC2CCN(CCOC(=O)c3cc(Cl)c(N)cc3OC)CC2)CC1
Active

Indicate the recorded Activity value for this molecule: COc1cc(N)c(Cl)cc1C(=O)OCCN1CCCCC1
Active

Provide Activity value for the following molecule: COc1cc(N)c(Cl)cc1C(=O)N[C@H]1CCN(CCCOc2ccc(F)cc2)C[C@H]1OC
Active
